Target: serum proteins
Test: 90% serum, 30 kDa ultrafiltration, HPLC
measured.quantity: Protein binding (%)
Unit % implied. Number only.

Answered examples (6):
{"binder": "GFCWNVCVYRNGYRVCHRRCN [SEQ ID NO: 242]", "value.units": "%", "Protein binding (%)": 83}
{"binder": "GFCWRVCVYRNGVRSCHRRCN [SEQ ID NO: 316]", "value.units": "%", "Protein binding (%)": 90}
{"binder": "GFCWYVCVKRNGARKCHRRCN [SEQ ID NO: 454]", "value.units": "%", "Protein binding (%)": 90}
{"binder": "GFCAYVCVYRNGVRVCYRRCN [SEQ ID NO: 4]", "value.units": "%", "Protein binding (%)": 89}
{"binder": "GFCWNVCVYRNGVRYCHRRCN [SEQ ID NO: 254]", "value.units": "%", "Protein binding (%)": 77}
{"binder": "GFCGRVCVYKNGKRACYRRCN [SEQ ID NO: 493]", "value.units": "%", "Protein binding (%)": 77}

Shifting focus to the binder that follows.
Enquiry: Find the recorded Protein binding (%) belonging to GFCYRVCVYRNGVRVCSRRCN [SEQ ID NO: 211] and report it.
Return: 96
